# target_system: Pantothenate synthetase (Mycobacterium tuberculosis (strain ATCC 25618 / H37Rv))
# protocol: Coupled enzyme confirmation of inhibitors against recombinant Mtb PanC (AID 375);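 note: 0% = full reaction with vehicle and 100% = no enzyme background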
# conditions: coupled enzyme assay; at 10 µM, active compounds read high
property: inhibition (%)
The figure you give is taken to be in %; do not add the unit.

For the molecule "COc1c(Br)cc2c(C)c(C(=O)O)oc2c1Br" , what inhibition is on record? 2

For the molecule "CCN(CC)c1ccc(-c2nn3c(-c4cccnc4)nnc3s2)cc1" , what inhibition is on record? 4

For the molecule "CCOc1ccc(-c2cc(CCCC(=O)N3CCN(c4ccc(OC)cc4)CC3)no2)cc1" , what inhibition is on record? 0

For the molecule "O=C(O)Cc1ccc(-c2ccccc2)cc1" , what inhibition is on record? 0

For the molecule "Cc1cc(C)c2c(=O)n(CC(=O)NCCCN3CCN(c4ccccc4F)CC3)sc2n1" , what inhibition is on record? 0

For the molecule "C=CCSc1nnc(-c2ccc(Cl)cc2Cl)o1" , what inhibition is on record? 5

For the molecule "Cc1ccc(Cn2nnc(C(=O)Nc3cccc(C)c3C)c2N)cc1" , what inhibition is on record? 5

For the molecule "Cc1ccccc1CSCC(=O)c1c(N)n(C)c(=O)n(C)c1=O" , what inhibition is on record? 2

For the molecule "Cc1ccc(C)c(S(=O)(=O)n2cnc3ccccc32)c1" , what inhibition is on record? 0

For the molecule "Cc1ccc(NC(=O)Nc2ccc3c(c2)N(C)C(=O)CS3)nc1" , what inhibition is on record? 5

For the molecule O=C(CC1(O)C(=O)Nc2ccccc21)c1ccc2c(c1)OCO2 (stereo not drawn) , what inhibition is on record? 0

For the molecule "Nc1sccc1C(=O)c1ccc(Cl)cc1" , what inhibition is on record? 0

For the molecule "COc1ccc(S(=O)(=O)N(C)CC(=O)N2CCCCC2)cc1Cl" , what inhibition is on record? 0

For the molecule CCOc1cc(C2NC(=O)N(C)C(C)=C2C(=O)OC)cc(Br)c1O (stereo not drawn) , what inhibition is on record? 0

For the molecule Cc1ccc(CNC(=O)C2CCCN(S(=O)(=O)c3cnc[nH]3)C2)cc1 (stereo not drawn) , what inhibition is on record? 2

For the molecule Cc1ccc(N(C(=O)C2CCC(=O)N2)C2(C(=O)NC3CCCCC3)CCCCC2)cc1 (stereo not drawn) , what inhibition is on record? 2

For the molecule "Cc1ccc(S(=O)(=O)Cc2ccc(C(=O)N3CCC4(CC3)OCCO4)o2)cc1" , what inhibition is on record? 0

For the molecule CCCN1C2CCCC1CC(NC(=O)c1ccccc1F)C2 (stereo not drawn) , what inhibition is on record? 2

For the molecule "C=CCc1c(C)nc(SC)nc1Nc1ccc(C(=O)O)cc1" , what inhibition is on record? 6

For the molecule COc1ccccc1N1CC(C(=O)Nc2cccc(C(=O)O)c2)CC1=O (stereo not drawn) , what inhibition is on record? 0

For the molecule CCOC(=O)C1(c2ccccc2)NC(c2ccc(N(C)C)cc2)C2C(=O)N(C)C(=O)C21 (stereo not drawn) , what inhibition is on record? 0

For the molecule "O=C(CSc1ncccn1)c1ccccc1Br" , what inhibition is on record? 7

For the molecule Cc1[nH]c(=O)[nH]c(=O)c1S(=O)(=O)N1c2ccc(F)cc2CCC1C (stereo not drawn) , what inhibition is on record? 0
